# Target or system: hCE2 (Homo sapiens, UniProt O00748)
# Construct: tissue Celsis (Shanghai, China); host or cells: human liver microsomes (HLM)
# Sequence (O00748 27-559): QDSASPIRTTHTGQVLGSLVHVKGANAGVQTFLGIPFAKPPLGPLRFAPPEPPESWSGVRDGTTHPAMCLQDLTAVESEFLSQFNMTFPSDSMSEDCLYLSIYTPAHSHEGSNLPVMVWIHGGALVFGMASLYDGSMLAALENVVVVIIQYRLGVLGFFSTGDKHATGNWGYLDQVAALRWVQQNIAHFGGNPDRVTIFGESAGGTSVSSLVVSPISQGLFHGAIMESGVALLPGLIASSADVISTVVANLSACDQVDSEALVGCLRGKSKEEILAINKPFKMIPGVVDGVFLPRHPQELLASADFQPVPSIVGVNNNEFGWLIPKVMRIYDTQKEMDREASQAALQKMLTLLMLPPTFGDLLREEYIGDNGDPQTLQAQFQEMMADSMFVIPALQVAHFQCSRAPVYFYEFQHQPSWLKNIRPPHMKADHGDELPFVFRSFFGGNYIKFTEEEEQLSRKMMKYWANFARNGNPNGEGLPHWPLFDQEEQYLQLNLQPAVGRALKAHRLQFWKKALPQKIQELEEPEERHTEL
# Assay comment: hCE2 inhibition assay, DDAB hydrolysis in human liver microsomes
# Assay type: biochemical

[
  {
    "Chemical structure": "C[C@H](CC(=O)C[C@@H](C)[C@H]1C[C@H](O)[C@@]2(C)C3=C(C(=O)C[C@]12C)[C@@]1(C)CCC(=O)C(C)(C)[C@@H]1C[C@@H]3O)C(=O)O",
    "Target or system": "hCE2 (Homo sapiens, UniProt O00748)",
    "IC50": "> 100 µM"
  }
]

---

# Target or system: hCE1 (Homo sapiens, UniProt P23141)
# Sequence (P23141 18-567): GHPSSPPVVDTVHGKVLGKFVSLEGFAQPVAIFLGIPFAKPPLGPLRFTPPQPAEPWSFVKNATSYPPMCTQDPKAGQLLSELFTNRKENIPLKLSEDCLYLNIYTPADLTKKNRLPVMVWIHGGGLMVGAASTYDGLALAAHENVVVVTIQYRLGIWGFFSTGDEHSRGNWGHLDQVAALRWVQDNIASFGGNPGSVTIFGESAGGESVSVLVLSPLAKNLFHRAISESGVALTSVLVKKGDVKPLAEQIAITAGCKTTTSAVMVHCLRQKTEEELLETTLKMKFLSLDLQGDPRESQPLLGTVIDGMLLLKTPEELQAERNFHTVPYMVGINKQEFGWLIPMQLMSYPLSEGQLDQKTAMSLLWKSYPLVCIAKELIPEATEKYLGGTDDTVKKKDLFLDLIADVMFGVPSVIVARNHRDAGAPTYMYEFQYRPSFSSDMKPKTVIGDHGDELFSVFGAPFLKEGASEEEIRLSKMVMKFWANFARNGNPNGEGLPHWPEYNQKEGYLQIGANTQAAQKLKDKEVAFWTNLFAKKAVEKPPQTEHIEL
# Assay comment: hCE1 inhibition assay, DME hydrolysis in human liver microsomes;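 also: carboxylesterase inhibition read out as probe hydrolysis, with DME serving as hCE1 substrate and DDAB as hCE2 substrate, in DMSO below 2% (V/V)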
# Type: biochemical
# Design: tissue Celsis (Shanghai, China); host or cells: human liver microsomes (HLM)
# Conditions: log of the experimental IC50 in μM, used for 3D-QSAR
Reported Observed Log(IC50_hCE1) values follow for various compounds

[
  {
    "Compound": "CC1(C(=O)O)CCC2(C)CCC3(C)C(=CCC4C5(C)CCC(O)C(C)(C)C5CCC43C)C2C1 (stereo not shown)",
    "Target or system": "hCE1 (Homo sapiens, UniProt P23141)",
    "Observed Log(IC50_hCE1) [μM]": 0.9513
  },
  {
    "Compound": "CC1(C)CCC2(C(=O)O)CCC3(C)C(=CCC4C5(C)CCC(OC(=O)CCC(=O)O)C(C)(C)C5CCC43C)C2C1 (stereo not shown)",
    "Target or system": "hCE1 (Homo sapiens, UniProt P23141)",
    "Observed Log(IC50_hCE1) [μM]": -1.77
  },
  {
    "Compound": "CC1(C)CCC2(C(=O)O)C(O)CC3(C)C(=CCC4C5(C)CC(O)C(O)C(C)(CO)C5CCC43C)C2C1 (stereo not shown)",
    "Target or system": "hCE1 (Homo sapiens, UniProt P23141)",
    "Observed Log(IC50_hCE1) [μM]": 1.811
  },
  {
    "Compound": "COC(=O)C12CCC(C)C(C)C1C1=CC(=O)C3C4(C)CCC(=O)C(C)(C)C4CCC3(C)C1(C)CC2 (stereo not shown)",
    "Target or system": "hCE1 (Homo sapiens, UniProt P23141)",
    "Observed Log(IC50_hCE1) [μM]": 1.521
  },
  {
    "Compound": "C=C(CCC(C(=O)O)C1C(O)CC2(C)C3=CCC4C(C)(C)C(=O)CCC4(C)C3=CCC12C)C(C)C (stereo not shown)",
    "Target or system": "hCE1 (Homo sapiens, UniProt P23141)",
    "Observed Log(IC50_hCE1) [μM]": 1.7679
  },
  {
    "Compound": "COC(=O)C12CCC(C)C(C)C1C1=CCC3C4(C)CCC(O)C(C)(C)C4CCC3(C)C1(C)CC2 (stereo not shown)",
    "Target or system": "hCE1 (Homo sapiens, UniProt P23141)",
    "Observed Log(IC50_hCE1) [μM]": 0.2625
  },
  {
    "Compound": "COC(=O)C12CCC(C)C(C)C1C1=CCC3C4(C)CCC(=O)C(C)(C)C4CCC3(C)C1(C)CC2 (stereo not shown)",
    "Target or system": "hCE1 (Homo sapiens, UniProt P23141)",
    "Observed Log(IC50_hCE1) [μM]": -0.04576
  },
  {
    "Compound": "CC1CCC2(C(=O)O)CCC3(C)C(=CCC4C5(C)CCC(=O)C(C)(C)C5CCC43C)C2C1C (stereo not shown)",
    "Target or system": "hCE1 (Homo sapiens, UniProt P23141)",
    "Observed Log(IC50_hCE1) [μM]": -1.4318
  },
  {
    "Compound": "CC1(C(=O)O)CCC2(C)CCC3(C)C(=CCC4C5(C)CCC(OC(=O)CCC(=O)O)C(C)(C)C5CCC43C)C2C1 (stereo not shown)",
    "Target or system": "hCE1 (Homo sapiens, UniProt P23141)",
    "Observed Log(IC50_hCE1) [μM]": 0.8414
  },
  {
    "Compound": "CC1(C)CCC2(CO)CCC3(C)C(=CCC4C5(C)CCC(O)C(C)(C)C5CCC43C)C2C1 (stereo not shown)",
    "Target or system": "hCE1 (Homo sapiens, UniProt P23141)",
    "Observed Log(IC50_hCE1) [μM]": 0.382
  },
  {
    "Compound": "C[C@H]1[C@H](C)CC[C@]2(C)CC[C@]3(C)C(=CC(=O)[C@@H]4[C@@]5(C)CC[C@@H](O)[C@](C)(C(=O)O)[C@@H]5CC[C@]43C)[C@H]12",
    "Target or system": "hCE1 (Homo sapiens, UniProt P23141)",
    "Observed Log(IC50_hCE1) [μM]": 2.092
  },
  {
    "Compound": "CC1(C)[C@@H](O)CC[C@]2(C)[C@H]3C(=O)C=C4[C@@H]5C[C@@](C)(C(=O)O)CC[C@]5(C)CC[C@@]4(C)[C@]3(C)CC[C@@H]12",
    "Target or system": "hCE1 (Homo sapiens, UniProt P23141)",
    "Observed Log(IC50_hCE1) [μM]": 1.1126
  },
  {
    "Compound": "CC(=O)OC1CCC2(C)C(CCC3(C)C2CC=C2C4CC(C)(C)CCC4(C(=O)O)CCC23C)C1(C)C (stereo not shown)",
    "Target or system": "hCE1 (Homo sapiens, UniProt P23141)",
    "Observed Log(IC50_hCE1) [μM]": -0.7212
  }
]
